assay.procedure: Absorption in a Caco-2 cells model
Format: in vitro ADME
measurement.parameters: human, read-out: Apparent partition coefficient, Papp

molecule | unit.info | Papp
O=C1[C@H](CC[C@H](O)c2ccc(F)cc2)[C@@H](c2ccc(O)cc2)N1c1ccc(F)cc1 [Ezetimibe, reference compound] | ×10⁻⁶ cm/s | 21
